src = paper PMC6271041

Biological target: HIV-1 RT (Human immunodeficiency virus type 1 group M subtype B, UniProt P04585)
Quantity name: IC50 (nM)

Smiles string | Target of assay | Assay result
COC(=O)c1ccc(CSc2nc(Cc3cc(C)cc(C)c3)c(I)c(=O)[nH]2)cc1 | HIV-1 RT (Human immunodeficiency virus type 1 group M subtype B, UniProt P04585) | 1110
Cc1cc(C)cc(Cc2cc(=O)[nH]c(SCCOc3ccc([N+](=O)[O-])cc3)n2)c1 | HIV-1 RT (Human immunodeficiency virus type 1 group M subtype B, UniProt P04585) | 590
Cc1cc(C)cc(Cc2cc(=O)[nH]c(SCCCOc3ccccc3)n2)c1 | HIV-1 RT (Human immunodeficiency virus type 1 group M subtype B, UniProt P04585) | 2640
O=c1cc(Cc2ccccc2)nc(SCCc2ccc([N+](=O)[O-])cc2)[nH]1 | HIV-1 RT (Human immunodeficiency virus type 1 group M subtype B, UniProt P04585) | 67200
Cc1cc(C)cc(Cc2nc(SCc3ccc([N+](=O)[O-])cc3)[nH]c(=O)c2I)c1 | HIV-1 RT (Human immunodeficiency virus type 1 group M subtype B, UniProt P04585) | 1660
O=c1cc(Cc2cc(F)cc(F)c2)nc(SCCc2ccc([N+](=O)[O-])cc2)[nH]1 | HIV-1 RT (Human immunodeficiency virus type 1 group M subtype B, UniProt P04585) | 18100
CC(=O)c1ccc(CSc2nc(Cc3cc(C)cc(C)c3)c(I)c(=O)[nH]2)cc1 | HIV-1 RT (Human immunodeficiency virus type 1 group M subtype B, UniProt P04585) | 410
O=c1[nH]c(SCCCOc2ccccc2)nc(Cc2cc(F)cc(F)c2)c1I | HIV-1 RT (Human immunodeficiency virus type 1 group M subtype B, UniProt P04585) | 18000
CC(=O)c1ccc(CSc2nc(Cc3cc(C)cc(C)c3)cc(=O)[nH]2)cc1 | HIV-1 RT (Human immunodeficiency virus type 1 group M subtype B, UniProt P04585) | 17000

###

Documented melting point across a set of compounds
Quantity name: melting point

Smiles string | Quantity name | Assay result
Cc1cc(C)cc(Cc2nc(SCc3ccc(C#N)cc3)[nH]c(=O)c2I)c1 | melting point | 224 to 227 °C
CC(=O)c1ccc(CSc2nc(Cc3cc(F)cc(F)c3)c(I)c(=O)[nH]2)cc1 | melting point | 205 to 206 °C
O=c1[nH]c(SCCOc2ccc([N+](=O)[O-])cc2)nc(Cc2cc(F)cc(F)c2)c1I | melting point | 224 to 226 °C
O=c1cc(Cc2cc(F)cc(F)c2)nc(SCCCOc2ccccc2)[nH]1 | melting point | 100 to 101 °C
O=c1[nH]c(SCCCOc2ccccc2)nc(Cc2ccccc2)c1I | melting point | 135 to 137 °C
COC(=O)c1ccc(CSc2nc(Cc3cc(C)cc(C)c3)c(I)c(=O)[nH]2)cc1 | melting point | 208 to 211 °C
COC(=O)c1ccc(CSc2nc(Cc3cc(F)cc(F)c3)c(I)c(=O)[nH]2)cc1 | melting point | 210 to 213 °C
Cc1cc(C)cc(Cc2nc(SCCOc3ccc([N+](=O)[O-])cc3)[nH]c(=O)c2I)c1 | melting point | 215 to 218 °C
Cc1cc(C)cc(Cc2cc(=O)[nH]c(SCCc3ccc([N+](=O)[O-])cc3)n2)c1 | melting point | 212 to 215 °C

###

Biological target: HIV-1 RT (Human immunodeficiency virus type 1 group M subtype B)
Label yes (1) when IC50 is strictly below 6 µM; at or above that, label no (0).

Compound | Target of assay | Cat
Cc1cc(C)cc(Cc2cc(=O)[nH]c(SCOCc3ccccc3)n2)c1 [7w] | HIV-1 RT (Human immunodeficiency virus type 1 group M subtype B) | yes (1)
COC(=O)c1ccc(CSc2nc(Cc3cc(C)cc(C)c3)cc(=O)[nH]2)cc1 [7k] | HIV-1 RT (Human immunodeficiency virus type 1 group M subtype B) | no (0)
Cc1cc(C)cc(Cc2cc(=O)[nH]c(SCc3ccc([N+](=O)[O-])cc3)n2)c1 [7b] | HIV-1 RT (Human immunodeficiency virus type 1 group M subtype B) | yes (1)
N#Cc1ccc(CSc2nc(Cc3cc(F)cc(F)c3)cc(=O)[nH]2)cc1 [7f] | HIV-1 RT (Human immunodeficiency virus type 1 group M subtype B) | no (0)
COC(=O)c1ccc(CSc2nc(Cc3ccccc3)cc(=O)[nH]2)cc1 [7j] | HIV-1 RT (Human immunodeficiency virus type 1 group M subtype B) | no (0)
CC(=O)c1ccc(CSc2nc(Cc3ccccc3)cc(=O)[nH]2)cc1 [7g, 2-(4-Acetylbenzylthio)-6-benzyluracil] | HIV-1 RT (Human immunodeficiency virus type 1 group M subtype B) | no (0)
Cc1cc(C)cc(Cc2cc(=O)[nH]c(SCCc3ccc([N+](=O)[O-])cc3)n2)c1 [7n] | HIV-1 RT (Human immunodeficiency virus type 1 group M subtype B) | yes (1)
O=c1[nH]c(SCOCc2ccccc2)nc(Cc2ccccc2)c1I [8v] | HIV-1 RT (Human immunodeficiency virus type 1 group M subtype B) | no (0)
Cc1cc(C)cc(Cc2cc(=O)[nH]c(SCc3ccc(C#N)cc3)n2)c1 [7e] | HIV-1 RT (Human immunodeficiency virus type 1 group M subtype B) | no (0)
O=c1[nH]c(SCCc2ccc([N+](=O)[O-])cc2)nc(Cc2cc(F)cc(F)c2)c1I [8o] | HIV-1 RT (Human immunodeficiency virus type 1 group M subtype B) | no (0)
O=c1[nH]c(SCCOc2ccc([N+](=O)[O-])cc2)nc(Cc2ccccc2)c1I [8p] | HIV-1 RT (Human immunodeficiency virus type 1 group M subtype B) | no (0)
O=c1cc(Cc2ccccc2)nc(SCCOc2ccc([N+](=O)[O-])cc2)[nH]1 [7p] | HIV-1 RT (Human immunodeficiency virus type 1 group M subtype B) | yes (1)
COC(=O)c1ccc(CSc2nc(Cc3cc(F)cc(F)c3)c(I)c(=O)[nH]2)cc1 [8l] | HIV-1 RT (Human immunodeficiency virus type 1 group M subtype B) | yes (1)
CC(=O)c1ccc(CSc2nc(Cc3cc(F)cc(F)c3)cc(=O)[nH]2)cc1 [7i] | HIV-1 RT (Human immunodeficiency virus type 1 group M subtype B) | no (0)
O=c1cc(Cc2ccccc2)nc(SCOCc2ccccc2)[nH]1 [7v, 2-(Benzyloxymethylthio)-6-benzyluracil] | HIV-1 RT (Human immunodeficiency virus type 1 group M subtype B) | no (0)
N#Cc1ccc(CSc2nc(Cc3ccccc3)cc(=O)[nH]2)cc1 [7d, 2-(4-Cyanobenzylthio)-6-benzyluracil] | HIV-1 RT (Human immunodeficiency virus type 1 group M subtype B) | no (0)
N#Cc1ccc(CSc2nc(Cc3ccccc3)c(I)c(=O)[nH]2)cc1 [8d] | HIV-1 RT (Human immunodeficiency virus type 1 group M subtype B) | no (0)
Cc1cc(C)cc(Cc2nc(SCCc3ccc([N+](=O)[O-])cc3)[nH]c(=O)c2I)c1 [8n] | HIV-1 RT (Human immunodeficiency virus type 1 group M subtype B) | yes (1)
O=c1cc(Cc2cc(F)cc(F)c2)nc(SCCCOc2ccccc2)[nH]1 [7u] | HIV-1 RT (Human immunodeficiency virus type 1 group M subtype B) | no (0)
COC(=O)c1ccc(CSc2nc(Cc3cc(F)cc(F)c3)cc(=O)[nH]2)cc1 [7l] | HIV-1 RT (Human immunodeficiency virus type 1 group M subtype B) | no (0)
O=c1[nH]c(SCCc2ccc([N+](=O)[O-])cc2)nc(Cc2ccccc2)c1I [8m] | HIV-1 RT (Human immunodeficiency virus type 1 group M subtype B) | no (0)
O=c1[nH]c(SCc2ccc([N+](=O)[O-])cc2)nc(Cc2cc(F)cc(F)c2)c1I [8c] | HIV-1 RT (Human immunodeficiency virus type 1 group M subtype B) | yes (1)
O=c1[nH]c(SCCOc2ccc([N+](=O)[O-])cc2)nc(Cc2cc(F)cc(F)c2)c1I [8r] | HIV-1 RT (Human immunodeficiency virus type 1 group M subtype B) | yes (1)
COC(=O)c1ccc(CSc2nc(Cc3ccccc3)c(I)c(=O)[nH]2)cc1 [8j] | HIV-1 RT (Human immunodeficiency virus type 1 group M subtype B) | yes (1)
O=c1cc(Cc2cc(F)cc(F)c2)nc(SCc2ccc([N+](=O)[O-])cc2)[nH]1 [7c] | HIV-1 RT (Human immunodeficiency virus type 1 group M subtype B) | no (0)
Cc1cc(C)cc(Cc2nc(SCOCc3ccccc3)[nH]c(=O)c2I)c1 [8w] | HIV-1 RT (Human immunodeficiency virus type 1 group M subtype B) | no (0)
O=c1cc(Cc2ccccc2)nc(SCCCOc2ccccc2)[nH]1 [7s, 2-(Phenoxypropylthio)-6-benzyluracil] | HIV-1 RT (Human immunodeficiency virus type 1 group M subtype B) | no (0)
Cc1cc(C)cc(Cc2nc(SCc3ccc(C#N)cc3)[nH]c(=O)c2I)c1 [8e] | HIV-1 RT (Human immunodeficiency virus type 1 group M subtype B) | yes (1)
